B1: NP_116010.1 (parent)
chain: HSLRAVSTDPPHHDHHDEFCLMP

variants of: B1; test: protein stability index of a GFP-peptide fusion (GPS, HEK-293T) (PSI 1-6); higher = more stable; settings: c terminus: native;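 further: lentivirally expressed fusion library, cells FACS-sorted into six equal-sized GFP/DsRed ratio bins, PSI computed from sequencing read fractions per bin weighted by bin number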
# reported protein stability index; entries follow

RECORD SEQUENCE	protein stability index
HSLRAVSTDPPHHDHHDEFCLMM	3.17
HSLRAVSTDPYHHDHHDEFCLMP	2.26
HSLRAVSTDPPHHDHRDEFCLMP	2.34
HSLRLVSTDPPHHDHHDEFCLMP	2.4
HSLRAVSTDPPHHSHHDEFCLMP	2.23
HSLRAVSTDPPHHDHHLEFCLMP	2.54
HSLRAVSLDPPHHDHHDEFCLMP	2.36
HSLRAVSQDPPHHDHHDEFCLMP	2.46

Query: Consider the variant `HSLRAVSTDPPHHDHHDELCLMP` and give its recorded protein stability index.
Response: 2.31

Query: For `HMLRAVSTDPPHHDHHDEFCLMP` , write its protein stability index.
Response: 2.41

Query: Note down protein stability index recorded for `HSLRAVSTDQPHHDHHDEFCLMP`
Response: 2.56
